Recorded Z-score, one value per entry.
- TESTED_ON: Human IP6K1 (Homo sapiens)
- Construct: GST (N, cleaved yes); made in house; host or cells: C43 E. coli, pGEX-6P-2
- TEST_PROTOCOL: IP6K1 high-throughput screen of the Sigma LOPAC (ADP-Glo Max, single point);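 further: final compound concentration 10µM in 5% DMSO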
- Format: biochemical
- CONDITION_NOTES: LOPAC single-point screen; Z-score from plate average and StDev
QUANTITY: Z-score

>>> quantitative_readout("Cc1ccc(S(=O)(=O)NC(=O)NN2CCCCCC2)cc1 [Tolazamide]")
1.587
>>> quantitative_readout("CN1CC[C@@]23CCCC[C@@H]2[C@@H]1Cc1ccc(O)cc13.O=C(O)C(O)C(O)C(=O)O [Dextrorphan D-tartrate]")
1.598
>>> quantitative_readout("CCN1CCCC1CNC(=O)c1cc(S(N)(=O)=O)ccc1OC (racemic) [(±)-Sulpiride]")
1.4
>>> quantitative_readout("C[N+](C)(C)CC#CCN1CCCC1=O [Oxotremorine methiodide]")
1.4488

###

Recorded Raw Signal, one value per entry.
- TESTED_ON: Human IP6K1 (Homo sapiens, UniProt Q92551)
- Construct: GST (N, cleaved yes); made in house; host or cells: C43 E. coli, pGEX-6P-2
- Sequence (Q92551 whole entry): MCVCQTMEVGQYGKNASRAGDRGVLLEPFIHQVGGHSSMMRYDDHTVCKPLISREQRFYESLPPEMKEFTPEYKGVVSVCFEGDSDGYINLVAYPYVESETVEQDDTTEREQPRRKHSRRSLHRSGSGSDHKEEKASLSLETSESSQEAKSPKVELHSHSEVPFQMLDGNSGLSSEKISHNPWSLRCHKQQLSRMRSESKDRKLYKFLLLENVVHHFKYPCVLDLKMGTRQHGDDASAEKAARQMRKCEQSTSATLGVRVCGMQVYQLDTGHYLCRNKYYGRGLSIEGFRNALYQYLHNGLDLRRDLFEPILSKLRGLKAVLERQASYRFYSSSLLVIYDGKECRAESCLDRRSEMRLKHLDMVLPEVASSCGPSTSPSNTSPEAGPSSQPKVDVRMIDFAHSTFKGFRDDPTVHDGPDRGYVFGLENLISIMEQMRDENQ
- TEST_PROTOCOL: IP6K1 high-throughput screen of the Sigma LOPAC (ADP-Glo Max, single point);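 further: final compound concentration 10µM in 5% DMSO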
- Assay type: biochemical
- CONDITION_NOTES: LOPAC single-point screen, ADP-Glo Max raw signal per well
Where a name gives a salt, the structure may show the parent alone.
QUANTITY: Raw Signal

>>> quantitative_readout("CC1(C)CCC(NC(=O)[C@@H](N)CCC(=O)O)CC1")
52015
>>> quantitative_readout("CC(CCc1ccccc1)NCC(O)c1ccc(O)c(C(N)=O)c1 (centres unmarked) [Labetalol hydrochloride]")
53329
>>> quantitative_readout("S=C([S-])OC1CC2CC1C1CCCC21.[K+] (centres unmarked)")
55448
>>> quantitative_readout("CC(NC(C)(C)C)C(=O)c1cccc(Cl)c1 (centres unmarked) [Bupropion hydrochloride]")
56700
>>> quantitative_readout("O=C(O)c1cc(O)c2ccc(Cl)cc2n1")
53866

###

- TESTED_ON: Human IP6K1 (Homo sapiens)
- Construct: GST (N, cleaved yes); made in house; host or cells: C43 E. coli, pGEX-6P-2
- TEST_PROTOCOL: IP6K1 high-throughput screen of the Sigma LOPAC (ADP-Glo Max, single point);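 further: final compound concentration 10µM in 5% DMSO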
- Format: biochemical
Structures can show the parent of a compound that is named as a salt.
QUANTITY: Raw Signal

>>> result("Nc1nc2ccc(Cl)cc2c2nc(-c3ccco3)nn12 [CGS-15943]")
60608
>>> result("Cl.Nc1c2c(nc3ccccc13)CCCC2")
49916
>>> result("C[C@@H](N)Cc1cnc[nH]1.Cl.Cl")
55341
>>> result("Br.COc1ccc(-c2ccc(=N)n(CCCC(=O)O)n2)cc1 [SR-95531]")
59972
>>> result("Oc1ccc2c3c1O[C@H]1[C@@H](O)CC[C@@]4(O)[C@@H](C2)N(CC2CCC2)CC[C@]314 [Nalbuphine hydrochloride]")
53889

###

- TESTED_ON: human IP6K3 (Homo sapiens)
- Construct: GST (N, cleaved yes); made in house; host or cells: C43 E. coli, pGEX-6P-2
- Sequence (Q96PC2 whole entry): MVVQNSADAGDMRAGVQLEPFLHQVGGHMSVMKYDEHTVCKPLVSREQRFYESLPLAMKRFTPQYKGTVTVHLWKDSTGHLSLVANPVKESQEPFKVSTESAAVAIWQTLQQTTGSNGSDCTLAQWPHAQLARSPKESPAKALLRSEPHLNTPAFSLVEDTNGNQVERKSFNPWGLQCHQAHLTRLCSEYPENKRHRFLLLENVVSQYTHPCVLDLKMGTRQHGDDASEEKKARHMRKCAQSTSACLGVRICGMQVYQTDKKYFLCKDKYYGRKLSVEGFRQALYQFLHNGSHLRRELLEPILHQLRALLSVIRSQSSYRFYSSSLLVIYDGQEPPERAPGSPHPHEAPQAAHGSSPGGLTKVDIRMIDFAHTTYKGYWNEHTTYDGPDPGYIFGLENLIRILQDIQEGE
- TEST_PROTOCOL: IP6K3 inhibition dose-response assay (ADP-Glo Max)
- Assay type: biochemical
- CONDITION_NOTES: 1mM ATP, 100μM IP6, 120nM IP6K3, 120 minutes, 37°C; read-out: IC50 IP6K3
QUANTITY: IC50 (µM)

>>> quantitative_readout("O=c1c(O)c(-c2cc(O)c(O)c(O)c2)oc2cc(O)cc(O)c12 [Myricetin]")
4.93

Data origin: paper PMC5706701
